assay.info: protein stability index of a GFP-peptide fusion (yeast GPS) (PSI 1-4); higher = more stable; sorted into four equal gates, so the index is relative within each strain
assay.context: pdr5∆
protein stability index by entry:
readout.kind: protein stability index

>>> observed_measurement("NYIENMNEMCKKINAKE [RPN8]")
3.07
>>> observed_measurement("TRQSSRNFDTHENYIQD [MCD1]")
3.03
>>> observed_measurement("KFQGVLESEAQKKATMS [RPC34]")
3.01
>>> observed_measurement("FEYVLYPSKTLKTDGVR [FAS2]")
2.96

* * *

assay.info: protein stability index of a GFP-peptide fusion (yeast GPS) (PSI 1-4); higher = more stable; sorted into four equal gates, so the index is relative within each strain
assay.context: san1∆
readout.kind: protein stability index

>>> observed_measurement("VSALQMLKQHLFKYQGH [PUP1]")
2.65
>>> observed_measurement("HLKILASSNFPFLNETK [RPC82]")
2.51
>>> observed_measurement("GYDINYISKIGEKIDSN [SWI1]")
3.23
>>> observed_measurement("EMNLHVPQSEETRAELS [RPO21]")
3.1
>>> observed_measurement("QQSNKLHCCIQLLMGDI [RPN3]")
2
>>> observed_measurement("RRRDGVFLYFEDNAGVI [RPL23A]")
2.37
>>> observed_measurement("LRAHTDDSRNPDCKIKI [PRE2]")
2.86
>>> observed_measurement("QKQWDDIAFVLNNLPYK [YCS4]")
2.97
>>> observed_measurement("LNLDSLLVDQKQLNSLR [SMD1]")
2.98
>>> observed_measurement("VDTSTELESMLEDLKNT [RRP6]")
3.46
>>> observed_measurement("REIQTAVRLILPGELAK [HTB1]")
2.55
>>> observed_measurement("KVAEVKKLEGTIEYQKL [RPT4]")
3.17
>>> observed_measurement("DINQAKDFIENVNNRFD [BRN1]")
3.3
>>> observed_measurement("QIVPYIEKLTDGHLRAP [BRR2]")
3.12
>>> observed_measurement("FVRQAAMIALSMILIQQ [RPN2]")
1.48
>>> observed_measurement("PEIDNLDDLVVLKKKNI [RRP6]")
2.59
>>> observed_measurement("ASNEVIAKSRYWYFLQK [RPL20A]")
2.58
